Listed compounds paired with reported cytotoxicity at 41 h, 10 µM
# Assay details: in vitro
Measured quantity: cytotoxicity at 41 h, 10 µM (%)

- Compound: "COc1cc([C@@H]2c3cc4c(cc3[C@H](O)[C@H]3COC(=O)[C@@H]23)OCO4)cc(OC)c1OC"
  Measured quantity: "cytotoxicity at 41 h, 10 µM"
  Measurement: 47.8
- Compound: "C[C@]12CC[C@H]3C(=CCc4cc(O)ccc43)[C@@H]1CCC2=O"
  Measured quantity: "cytotoxicity at 41 h, 10 µM"
  Measurement: -51.5
- Compound: "CCOC(=O)C1C(C=C(C)C)C1(C)C (stereo not drawn)"
  Measured quantity: "cytotoxicity at 41 h, 10 µM"
  Measurement: -95.7
